Biological target: T1, Human TMPRSS2 recombinant protein, extracellular region (N-terminal His tag, C-terminal Strep-tag II) (human, UniProt O15393 106-492)
T1 construct: also called Human TMPRSS2 recombinant proteins; extracellular region of human TMPRSS2
T1 sequence (O15393 other isoform, or with tags, fused parts or gaps limits assumed): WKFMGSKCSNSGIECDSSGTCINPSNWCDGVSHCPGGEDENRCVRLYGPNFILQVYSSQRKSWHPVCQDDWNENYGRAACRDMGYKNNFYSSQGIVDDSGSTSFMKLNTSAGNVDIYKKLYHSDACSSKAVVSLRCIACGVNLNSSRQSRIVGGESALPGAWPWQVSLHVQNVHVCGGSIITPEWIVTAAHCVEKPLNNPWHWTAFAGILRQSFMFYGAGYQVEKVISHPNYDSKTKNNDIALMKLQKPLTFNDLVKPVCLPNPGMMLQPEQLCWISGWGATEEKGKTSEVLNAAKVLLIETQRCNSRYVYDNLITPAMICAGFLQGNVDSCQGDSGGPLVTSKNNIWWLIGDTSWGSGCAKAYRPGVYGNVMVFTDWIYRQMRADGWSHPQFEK
Test: SPR (BIACore)
pKd: −log10 of the molar value.
The binders listed here are annotated with their pKd.

{"columns": ["BINDER", "pKd"],
 "data": [
  ["humanized 752-1 IgG4 (S108P) prototype #3 (antibody, V domains shown, also called humanized #3; hu #3) VH: QVQLQQSGTGLARPGASVKLSCKASGYTFTSCGISWVTQRAGQGLEWIGEIYPRGGNTYYNEKFKGKATLTADKSSSSAYMELRGLTAEDSAVYFCARENGNYDPLFAYWGQGTTLTVSS VL: DIQMTQSPSSLSASVGDRVTITCKASQDINKYIAWYQQKPGKAPKLLIYYTSTLQPGVPSRFSGSGSGTDFTFTISSLQPEDIATYYCLQYYNLWTFGGGTKVEIK", 8.68],
  ["humanized 2228-15 IgG4 (S108P) prototype #3 (antibody, V domains shown, also called humanized #3; hu #3) VH: EIQLVQSGAEVKKPGSSVKVSCKASGYTFTDYYINWMRQAPGQGLEWIGWIFPGSGSSYYNAIFKGRATLTVDTSTNTAYMELSSLRSEDTAFYFCARGDFGNFGGFFTYWGQGTLVTVSS VL: DVVMTQSPLSLPVTLGQPASISCRASKSVSTSGYSFMHWFQQRPGQSPRRLIYLASNLESGVPDRFSGSGSGTDFTLKISRVEAEDVGVYYCQHSRELPLTFGGGTKVEIK", 9.03],
  ["recombinant 2228-15 mIgG (antibody, V domains shown) VH: QVQLQQSGPELVKPGTSVKISCKASGYTFTDYYINWVKQRPGQGLEWIGWIFPGSGSSYYNAIFKGKATLTVDTSSNTAHMSLSSLTSDDSAVYFCARGDFGNFGGFFTYWGQGTLVTVSA VL: DVVVTQSPASLAVSLGQRATISCRASKSVSTSGYSFMHWYQQKPGQPPKLLIYLASNLESGVPARFSGSGSGTDFILNIHPVEEEDAATYYCQHSRELPLTFGAGTKLELK", 8.43]
]}

Each recorded value in this set is attributed to patent US20250277059A1.
